These entries and their values trace back to PubChem BioAssay (NCI).

TGI by entry:
- System: HCC-2998 colon
- EXPERIMENTAL_PROTOCOL: NCI tumour cell line growth inhibition, 48 h

MOLECULE	TGI
CN(C)C(=O)C1CCC(=C2C(=O)OC(C)(C)OC2=O)N1C (centres undefined)	> 100 µM

Attention now shifts to the item below.
Readout TGI for COc1cc2cc(Oc3ccc(NC(=O)c4ccc(Cl)c(C(F)(F)F)c4)cc3)c(C)nc2cc1OC , test system HCC-2998 colon, was > 100 µM

====

TGI by entry:
- System: MOLT-4 leukemia
- EXPERIMENTAL_PROTOCOL: NCI tumour cell line growth inhibition, 48 h
Reply with just the number (in µM).

MOLECULE	SYSTEM_TESTED	UNIT_INFO	TGI
Cn1c(=O)nc2n(-c3ccc(Cl)cc3Cl)c3ccccc3nc-2c1=O	MOLT-4 leukemia	µM	35.7
Cn1cc(-c2ccc3c(c2)CCN3C(=O)Cc2cccc(C(F)(F)F)c2)c2c(N)ncnc21	MOLT-4 leukemia	µM	18.6

For this molecule ( COC(=O)[C@@]12OC[C@]34C([C@@H](O)C1O)[C@@]1(C)CC(=O)C(O)=C(C)C1C[C@H]3OC(=O)[C@H](OC(=O)CC(C)C(F)(F)F)[C@H]42 (some centres undefined) ), measured TGI is 0.312
